target: T1, HLA-A*02:01 (human); assay: UV peptide exchange ELISA (anti-b2m); yield grade: + >10%, ++ >20%, +++ >50, ++++ >75%
T1 construct: captured on streptavidin plates; also called peptide-receptive MHC molecules
MEASURED METRIC: peptide exchange yield

Solved cases below.
INSERT INTO results (binder, result) VALUES
  ('SVALVIHNV', '> 75%'),
  ('ALIEVLQPLI', '> 75%'),
  ('NLQEKVPEL', '50 to 75%');

Now for a further binder.
Prompt line: Name the recorded peptide exchange yield for `TLLEVDAIVNA` .
Response line: > 75%
